- system: PIK3CA (human) (UniProt P42336)
- Sequence (P42336 whole entry, looked up): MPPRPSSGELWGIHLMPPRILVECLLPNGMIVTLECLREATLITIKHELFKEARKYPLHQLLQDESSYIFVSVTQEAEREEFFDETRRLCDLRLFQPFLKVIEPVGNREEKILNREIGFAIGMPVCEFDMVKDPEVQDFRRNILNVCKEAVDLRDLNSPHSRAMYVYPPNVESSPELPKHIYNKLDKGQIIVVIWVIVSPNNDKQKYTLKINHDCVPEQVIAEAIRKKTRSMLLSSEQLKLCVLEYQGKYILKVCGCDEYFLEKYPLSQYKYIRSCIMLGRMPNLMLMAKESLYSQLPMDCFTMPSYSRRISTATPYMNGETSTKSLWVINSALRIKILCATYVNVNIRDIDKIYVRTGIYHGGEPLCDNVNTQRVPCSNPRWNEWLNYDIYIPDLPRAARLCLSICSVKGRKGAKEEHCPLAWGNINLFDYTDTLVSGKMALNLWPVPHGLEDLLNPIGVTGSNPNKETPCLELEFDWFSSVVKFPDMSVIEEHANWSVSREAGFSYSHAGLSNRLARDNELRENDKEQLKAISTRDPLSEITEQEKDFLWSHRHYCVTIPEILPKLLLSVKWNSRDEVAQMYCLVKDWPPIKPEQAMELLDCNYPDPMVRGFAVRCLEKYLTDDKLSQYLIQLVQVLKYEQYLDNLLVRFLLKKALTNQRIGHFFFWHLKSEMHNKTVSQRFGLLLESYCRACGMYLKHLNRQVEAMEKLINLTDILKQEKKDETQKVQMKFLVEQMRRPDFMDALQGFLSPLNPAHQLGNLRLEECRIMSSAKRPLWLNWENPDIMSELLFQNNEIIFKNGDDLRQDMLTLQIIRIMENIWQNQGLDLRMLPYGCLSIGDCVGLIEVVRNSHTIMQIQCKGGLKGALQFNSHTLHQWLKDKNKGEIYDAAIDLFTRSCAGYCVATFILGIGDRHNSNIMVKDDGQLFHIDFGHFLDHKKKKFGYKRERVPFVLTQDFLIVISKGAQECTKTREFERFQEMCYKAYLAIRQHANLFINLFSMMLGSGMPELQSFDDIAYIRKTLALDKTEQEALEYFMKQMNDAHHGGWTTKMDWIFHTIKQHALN
- method-description: Inhibition of A2780 Cell Proliferation
Assignment: determine reported EC50 for the given compounds.

[Q] Query: EC50; subject: Nc1ncc(-c2ccc3nc(NC(=O)CO[C@@H]4CCNC4)cn3c2)cc1C(F)(F)F
[A] < 10 µM

[Q] Query: EC50; subject: CC(=O)Nc1nc2ccc(-c3cnc(N)nc3C(F)(F)F)cc2s1
[A] < 25 µM

[Q] Query: EC50; subject: COc1nc(-c2ccc3nc(NC(C)=O)cn3n2)cnc1N
[A] < 10 µM

[Q] Query: EC50; subject: Nc1ncc(-c2ccc3nc(NC(=O)[C@H]4CCCCN4)cn3c2)cc1C(F)(F)F
[A] < 10 µM

[Q] Query: EC50; subject: Nc1ncc(-c2ccc3nc(NC(=O)Cc4cccc5ccccc45)cn3c2)cc1C(F)(F)F
[A] < 1 µM

[Q] Query: EC50; subject: Nc1ncc(-c2ccc3nc(NC(=O)C4CNC4)cn3n2)cc1C(F)(F)F
[A] < 10 µM

[Q] Query: EC50; subject: CC(=O)Nc1cn2cc(-c3cnc(N)c(C(F)(F)F)c3)c(F)cc2n1
[A] < 25 µM

[Q] Query: EC50; subject: Nc1ncc(-c2ccc3nc(NC(=O)c4ccc(F)cc4)cn3c2)cc1C(F)(F)F
[A] < 1 µM

[Q] Query: EC50; subject: CC(=O)Nc1cn2cc(-c3cnc(N)c(C(=O)NCCN4CCCC4)n3)ccc2n1
[A] < 1 µM

[Q] Query: EC50; subject: CC(C)(C)OC(=O)N1CCC1C(=O)Nc1cn2cc(-c3cnc(N)c(OCC(F)(F)F)n3)ccc2n1 (stereo not given)
[A] < 25 µM
